Test system: KRas Q61H mutant
EXPERIMENT: Ras GTP binding domain inhibition assay (Cy3-GTP/Cy5-GTP competition)
Design: species or system human
CONDITION LABEL: 20 μM; without SOS
ASSAY ENDPOINT: KRas Q61H mutant: % inh.

In [3]: df
Out[3]:
                                   compound            assay_endpoint        reported_result
0  COC1CCN(c2nc(-c3nccn3C)nc3sc(-c4ccc(CO)cc4)c(-c4ccccc4)c23)C1.Cl (centres unmarked)  KRas Q61H mutant: % inh.      0 (0% inhibition)
1  COC1CCN(c2nc(-c3nccn3C)nc3sc(-c4ccccc4Cl)c(-c4cscn4)c23)C1 (centres unmarked) [drawing 849]  KRas Q61H mutant: % inh.  B (26-50% inhibition)
2  COC1CCN(c2nc(-c3nccn3C)nc3sc(Br)c(-c4ccccc4)c23)C1 (centres unmarked) [drawing 822]  KRas Q61H mutant: % inh.  B (26-50% inhibition)
3  COC1CCN(c2nc(-c3nccn3C)nc3sc(-c4cccnc4)c(-c4ccccc4)c23)C1.Cl (centres unmarked)  KRas Q61H mutant: % inh.  B (26-50% inhibition)
4  COCCNc1nc(-c2nccn2C)nc2sc(-c3cccc(OC)c3Cl)c(-c3ccc(OC)cc3)c12 [drawing 874]  KRas Q61H mutant: % inh.   A (1-25% inhibition)
5  COCCNc1nc(-c2nccn2C)nc2sc(-c3cc(OC)ccc3Cl)c(-c3ccc(OC)cc3)c12 [drawing 877]  KRas Q61H mutant: % inh.   A (1-25% inhibition)
6  CO[C@@H]1CCC(Nc2nc(-c3nccn3C)nc3sc(-c4ccn(C)n4)c(-c4ccccc4)c23)C1 (some centres unmarked) [drawing 859]  KRas Q61H mutant: % inh.  B (26-50% inhibition)

# compound COCC(C)Nc1nc(-c2nccn2C)nc2sc(-c3ccn(C)n3)c(-c3ccc(OC)cc3)c12 (centres unmarked) [drawing 869] ; its KRas Q61H mutant: % inh. = A (1-25% inhibition)
